Provenance of the data: ChEMBL document CHEMBL3046608

experimental_details: Diluted plasma protein binding in Homo sapiens (human) by ultrafiltration-HPLC-UV/DAD method
Format: ADME, cell-free
settings: read-out: PPB (converted)
metric: fraction unbound
Form rule: numeric answer, no unit written next to it.

Exercise: Item Oc1cc(O)c2c(c1)O[C@@H](c1ccc(O)c(O)c1)[C@H](O)C2 [(-)-CATECHIN] has what recorded fraction unbound?
Solution: 0.55

----------
target_of_assay: UniProt:P02768
experimental_details: Binding affinity to 0.06 mM Homo sapiens (human) serum albumin by ultrafiltration-HPLC-UV/DAD method
Assay type: ADME
metric: Activity
Note: a bare number is incomplete; add the unit.

INSERT INTO assay_data (compound, result) VALUES
  ('Oc1cc(O)c2c(c1)O[C@@H](c1ccc(O)c(O)c1)[C@H](O)C2 [(-)-CATECHIN]', '30.9%');

Exercise: Item O=C(O[C@@H]1Cc2c(O)cc(O)cc2O[C@@H]1c1cc(O)c(O)c(O)c1)c1cc(O)c(O)c(O)c1 [EPIGALOCATECHIN GALLATE] has what recorded Activity?
Solution: 68.7%

Exercise: Item O=C(O[C@@H]1Cc2c(O)cc(O)cc2O[C@@H]1c1ccc(O)c(O)c1)c1cc(O)c(O)c(O)c1 [EPICATECHIN GALLATE] has what recorded Activity?
Solution: 69.5%

Exercise: Item Cn1c(=O)c2c(ncn2C)n(C)c1=O has what recorded Activity?
Solution: 58.4%

----------
target_of_assay: Albumin (Homo sapiens, UniProt P02768)
Sequence (P02768 whole entry): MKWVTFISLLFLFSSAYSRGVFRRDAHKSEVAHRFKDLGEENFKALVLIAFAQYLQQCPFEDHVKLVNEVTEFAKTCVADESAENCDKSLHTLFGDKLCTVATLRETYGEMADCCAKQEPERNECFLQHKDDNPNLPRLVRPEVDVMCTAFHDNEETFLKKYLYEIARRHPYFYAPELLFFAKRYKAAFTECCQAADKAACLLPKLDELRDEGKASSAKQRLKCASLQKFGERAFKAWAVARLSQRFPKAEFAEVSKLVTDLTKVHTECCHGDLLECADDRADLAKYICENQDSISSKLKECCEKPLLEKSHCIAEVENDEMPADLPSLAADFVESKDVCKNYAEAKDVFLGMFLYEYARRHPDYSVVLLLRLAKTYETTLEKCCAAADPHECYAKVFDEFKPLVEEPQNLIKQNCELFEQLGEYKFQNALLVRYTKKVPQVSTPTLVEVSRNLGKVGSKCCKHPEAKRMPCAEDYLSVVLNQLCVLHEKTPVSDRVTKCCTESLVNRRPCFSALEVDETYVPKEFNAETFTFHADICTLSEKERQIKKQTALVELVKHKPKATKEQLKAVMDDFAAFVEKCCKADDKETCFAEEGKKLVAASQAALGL
experimental_details: Binding affinity to 0.6 mM Homo sapiens (human) serum albumin by ultrafiltration-HPLC-UV/DAD method
Format: ADME
# Activity per entry
Note: a bare number is incomplete; add the unit.

INSERT INTO measurements (compound, metric, result) VALUES
  ('Cn1c(=O)c2c(ncn2C)n(C)c1=O [CAFFEINE]', 'Activity', '72.7%'),
  ('O=C(O[C@@H]1Cc2c(O)cc(O)cc2O[C@@H]1c1ccc(O)c(O)c1)c1cc(O)c(O)c(O)c1 [EPICATECHIN GALLATE]', 'Activity', '85.8%'),
  ('O=C(O[C@@H]1Cc2c(O)cc(O)cc2O[C@@H]1c1cc(O)c(O)c(O)c1)c1cc(O)c(O)c(O)c1 [EPIGALOCATECHIN GALLATE]', 'Activity', '85.2%');

Next:
Exercise: Item Oc1cc(O)c2c(c1)O[C@@H](c1ccc(O)c(O)c1)[C@H](O)C2 [(-)-CATECHIN] has what recorded Activity?
Solution: 65.6%

----------
experimental_details: Diluted plasma protein binding in Rattus norvegicus Wistar (rat) by ultrafiltration-HPLC-UV/DAD method
Format: ADME, cell-free
settings: read-out: PPB (converted)
metric: fraction unbound
Form rule: numeric answer, no unit written next to it.

Exercise: Item Oc1cc(O)c2c(c1)O[C@@H](c1ccc(O)c(O)c1)[C@H](O)C2 [(-)-CATECHIN] has what recorded fraction unbound?
Solution: 0.55

----------
# fraction unbound per entry
experimental_details: Total plasma protein binding in Homo sapiens (human) by ultrafiltration-HPLC-UV/DAD method
Type: ADME, cell-free
settings: read-out: PPB (converted)
Form rule: numeric answer, no unit written next to it.

In the examples that follow, each entry is paired with its recorded fraction unbound.
INSERT INTO results (compound, number) VALUES
  ('Oc1cc(O)c2c(c1)O[C@@H](c1ccc(O)c(O)c1)[C@H](O)C2 [(-)-CATECHIN]', 0.15),
  ('O=C(O[C@@H]1Cc2c(O)cc(O)cc2O[C@@H]1c1cc(O)c(O)c(O)c1)c1cc(O)c(O)c(O)c1 [EPIGALOCATECHIN GALLATE]', 0.15);

Exercise: Item O=C(O[C@@H]1Cc2c(O)cc(O)cc2O[C@@H]1c1ccc(O)c(O)c1)c1cc(O)c(O)c(O)c1 [EPICATECHIN GALLATE] has what recorded fraction unbound?
Solution: 0.15
